# System: mouse-derived preosteoblast cell line MC3T3-E1
# protocol.text: Cytotoxicity evaluation, relative cell metabolic activity (CellTiter-Blue), MC3T3-E1
# Assay type: cell-based
# measurement.parameters: Mus musculus, MC3T3-E1, 10 µM, 24 h, mean ± SD, read-out: Relative metabolic activity of MC3T3-E1 cells
Listed here: items and their measured viability at 10 µM.
The reply should be a number in %, with the unit left off.

compound: COc1cccc2c1C(=O)c1c(O)c3c(c(O)c1C2=O)C[C@@](O)(C(=O)CO)C[C@@H]3O[C@H]1C[C@H](N)[C@H](O)[C@H](C)O1
test.result: 72

compound: C[C@H]1[C@H](C)CC[C@]2(C(=O)O)CC[C@]3(C)C(=CC[C@@H]4[C@@]5(C)CCC(=O)C(C)(C)[C@@H]5CC[C@]43C)[C@H]12
test.result: 74

compound: C=C(C)C1CCC2(C(=O)OCP(=O)([O-])[O-])CCC3(C)C(CCC4C5(C)CCC(O)C(C)(C)C5CCC43C)C12.[Na+].[Na+] (centres unmarked)
test.result: 108

compound: CC1(C)CCC2(C(=O)OCP(=O)([O-])[O-])CCC3(C)C(=CCC4C5(C)CCC(=O)C(C)(C)C5CCC43C)C2C1.[Na+].[Na+] (centres unmarked)
test.result: 131

compound: C=C(C)[C@@H]1CC[C@]2(C(=O)O)CC[C@]3(C)[C@H](CC[C@@H]4[C@@]5(C)CCC(=O)C(C)(C)[C@@H]5CC[C@]43C)[C@@H]12
test.result: 139

Prompt: Item under review: `C=C(C)[C@@H]1CC[C@]2(COCP(=O)([O-])[O-])CC[C@]3(C)[C@H](CC[C@@H]4[C@@]5(C)CC[C@H](OCP(=O)([O-])[O-])C(C)(C)[C@@H]5CC[C@]43C)[C@@H]12.[Na+].[Na+].[Na+].[Na+]` . Reported viability at 10 µM?
Response: 90

Prompt: What does the data say about its viability at 10 µM? Entry: `C=C(C)[C@@H]1CC[C@]2(C(=O)O)CC[C@]3(C)[C@H](CC[C@@H]4[C@@]5(C)CC[C@H](O)C(C)(C)[C@@H]5CC[C@]43C)[C@@H]12`
Response: 76

Prompt: Any idea what its viability at 10 µM is? The compound is `CC1(C)CC[C@]2(C(=O)O)CC[C@]3(C)C(=CC[C@@H]4[C@@]5(C)CC[C@H](O)C(C)(C)[C@@H]5CC[C@]43C)[C@@H]2C1`
Response: 104

---

# Tested on: mouse-derived preosteoblast cell line MC3T3-E1
# protocol.text: Cytotoxicity evaluation, relative cell metabolic activity (CellTiter-Blue), MC3T3-E1
# Type: cell-based
# measurement.parameters: Mus musculus, MC3T3-E1, 50 µM, 24 h, mean ± SD, read-out: Relative metabolic activity of MC3T3-E1 cells
test.readout: viability at 50 µM
Report the figure along with its unit, number first.

molecule: CC1(C)CCC2(C(=O)OCP(=O)([O-])[O-])CCC3(C)C(=CCC4C5(C)CCC(=O)C(C)(C)C5CCC43C)C2C1.[Na+].[Na+] (stereo not drawn) [7b]
assay.system: mouse-derived preosteoblast cell line MC3T3-E1
test.readout: viability at 50 µM
test.result: 104%

Prompt: Would you kindly share the measured viability at 50 µM for C[C@H]1[C@H](C)CC[C@]2(C(=O)O)CC[C@]3(C)C(=CC[C@@H]4[C@@]5(C)CC[C@H](O)C(C)(C)[C@@H]5CC[C@]43C)[C@H]12 [Ursolic acid (1c), Ursolic acid] ?
Response: 99%

Prompt: Query: viability at 50 µM; subject: C[C@H]1[C@H](C)CC[C@]2(C(=O)O)CC[C@]3(C)C(=CC[C@@H]4[C@@]5(C)CCC(=O)C(C)(C)[C@@H]5CC[C@]43C)[C@H]12 [Ursonic acid (2c), Ursonic acid]
Response: 72%

Prompt: For the molecule shown here, C=C(C)C1CCC2(C(=O)OCP(=O)([O-])[O-])CCC3(C)C(CCC4C5(C)CCC(O)C(C)(C)C5CCC43C)C12.[Na+].[Na+] (stereo not drawn) [8a] , give the reported viability at 50 µM.
Response: 101%

Prompt: Need viability at 50 µM, item C=C(C)[C@@H]1CC[C@]2(C(=O)O)CC[C@]3(C)[C@H](CC[C@@H]4[C@@]5(C)CC[C@H](O)C(C)(C)[C@@H]5CC[C@]43C)[C@@H]12 [Betulinic acid]
Response: 97%

Prompt: Could you share which viability at 50 µM value was measured for C=C(C)[C@@H]1CC[C@]2(C(=O)O)CC[C@]3(C)[C@H](CC[C@@H]4[C@@]5(C)CCC(=O)C(C)(C)[C@@H]5CC[C@]43C)[C@@H]12 [Betulonic acid (2a), Betulonic acid] ?
Response: 122%
